Test system: A498
Test: In vitro anti-tumour cell growth inhibition (method of Skehan et al.), A498
Type: cell-based
Conditions: A498, renal cancer; amount which inhibits 50% of the cell growth
Binary call on ID50 with cut-off 1 µg/mL: strictly below means True, and equality or higher means False.

Req: Answer whether the molecule CC1(C)OC(=O)CC1C(=O)[O-].c1cc[c]([Sn+]([c]2ccccc2)[c]2ccccc2)cc1 [Compound 3, triphenyltin terebate] has ID50 strictly less than 1 µg/mL
Resp: True

Req: Answer whether the molecule N.N.O=C([O-])C1(C(=O)[O-])CCC1.[Pt+2] [Carboplatin, carboplatin, reference compound] has ID50 strictly less than 1 µg/mL
Resp: False

Req: Answer whether the molecule CC1(C)OC(=O)CC1C(=O)[O-].CCC[CH2][Sn+]([CH2]CCC)[CH2]CCC [Compound 2, tri-n-butyltin terebate] has ID50 strictly less than 1 µg/mL
Resp: True

Req: Answer whether the molecule N.N.[Cl][Pt][Cl] [Cisplatin, cisplatin, reference compound] has ID50 strictly less than 1 µg/mL
Resp: False

Req: Answer whether the molecule CC1(C)OC(=O)CC1C(=O)[O-].CC1(C)OC(=O)CC1C(=O)[O-].CCC[CH2][Sn+2][CH2]CCC (centres unmarked) [Compound 1, Di-n-butyltin diterebate] has ID50 strictly less than 1 µg/mL
Resp: True
